# System: U-251
# test description: NCI tumour cell line growth inhibition, 48 h
The source made the active and inactive calls. Cut-off read from the data, not from the text of the source: active = GI50 up to about 1.1 µM and inactive = higher.
metric name: GI50

# example entries with known answers
{"columns": ["molecule", "GI50"],
 "data": [
  ["CC1=NN(C(=O)c2ccc(Cl)cc2)C(=O)/C1=C/c1ccc(O)cc1", "> 100 µM (inactive)"],
  ["COC1=CC2(C=CC1=O)c1cc(OC)c(OC)cc1CCN2C(=O)c1ccccc1 (stereo unspecified)", "> 100 µM (inactive)"],
  ["O=S(=O)(c1ccccc1)N1CCN(S(=O)(=O)c2ccccc2)c2ccccc21", "> 100 µM (inactive)"],
  ["O=C(O)C12CC3(C(=O)O)CC(C(=O)O)(CC(C(=O)O)(C1)C3=O)C2=O", "> 100 µM (inactive)"],
  ["CSc1nc2c(c(=O)n1C)N=C(c1ccccc1)[C@H](C(CC(=O)c1ccccc1)c1ccccc1)C(c1ccccc1)N2 (stereo partly specified)", "> 100 µM (inactive)"]
]}

Lab note: next molecule to report on.
For the molecule Cc1ccc(S(=O)(=O)NC(=O)N[C@@H](Cc2c[nH]cn2)C(=O)O)cc1 , what GI50 is on record?
> 100 µM (inactive)

---

I'd be grateful if you could share measured GI50 for these entries.
# Test system: CCRF-CEM
# test description: NCI tumour cell line growth inhibition, 48 h
Active and inactive are the calls of the source. Cut-off read from the data, not from the text of the source: active = GI50 up to about 1.1 µM and inactive = higher.

{"columns": ["compound", "metric name", "result"],
 "data": [
  ["Cc1ccc(C)n1-c1ccccc1C1C=Cn2c(=O)oc3c(OC(C)C)c(OC(C)C)c(O)c1c32 (stereo not drawn)", "GI50", "18 µM (inactive)"],
  ["O=C1c2ccccc2CCCCCCCCCCC12OCCCO2", "GI50", "25.3 µM (inactive)"]
]}

# next compound below
Fill in: GI50 of Cc1ccc(S(=O)(=O)N/C(=C\C=C\c2ccccc2)C(=O)C(C)(C)C)cc1 is ___
> 100 µM (inactive)

---

# Tested on: OVCAR-5
# test description: NCI tumour cell line growth inhibition, 48 h
The source made the active and inactive calls. Cut-off read from the data, not from the text of the source: active = GI50 up to about 1.1 µM and inactive = higher.
metric name: GI50

{"columns": ["molecule", "metric name", "result"],
 "data": [
  ["CCC(CC)(CO)CNc1cc(Cl)nc(N)n1", "GI50", "> 100 µM (inactive)"],
  ["COC(=O)[C@@H]1CN(C(=O)CCc2ccccc2)C(=O)N1C(=O)OCc1ccccc1", "GI50", "> 100 µM (inactive)"],
  ["C/N=c1\\ss/c(=N\\C(=S)N(C)C)n1-c1ccccc1", "GI50", "> 100 µM (inactive)"],
  ["COC(=O)/C=C\\c1ccc2c(c1)CC1(C2)Cc2ccc(/C=C/C(=O)OC)cc2C1 (stereo unspecified)", "GI50", "> 31.6 µM (inactive)"],
  ["NCC(=O)N1CCN(c2nc(N3CCCC3)c3nc(Cl)c(NCc4ccccc4)nc3n2)CC1", "GI50", "2.91 µM (inactive)"]
]}

Parameters: items (list). Returns: GI50 for each item.
1. C/C(=N\NC(=S)Nc1ccc([N+](=O)[O-])cc1S(=O)(=O)O)c1ccccn1
2. CC(=O)OCC(=O)[C@@]1(O)CC[C@H]2[C@@H]3CCC4=CC(=O)[C@H](C)C[C@]4(C)[C@H]3[C@@H](O)C[C@@]21C
3. CSc1nc(C)c(CCOC(C)=O)c(Cl)n1
4. CCC12CCCN(Cc3ccccc3)C1c1c([nH]c3ccccc13)C(C(=O)OC)C2 (stereo unspecified)
5. NC(=O)NCCCC(NC(=O)OCCCCCCn1ccc(=O)[nH]c1=O)C(=O)O (stereo unspecified)
6. CC(C)CNC(=O)CCc1cccc2c1oc1c(CCN)cccc12

39.9 µM (inactive)
> 100 µM (inactive)
> 100 µM (inactive)
7.89 µM (inactive)
> 100 µM (inactive)
15.1 µM (inactive)

---

# System: DLD-1
# test description: NCI tumour cell line growth inhibition, 48 h
Activity calls are given as the source filed them. Rule as the data show it: active = GI50 up to about 1.1 µM and inactive = higher.
Your response should consist of one outcome taken from class 1 = active, class 0 = inactive

{"columns": ["molecule", "subject of test", "group label"],
 "data": [
  ["O=C(Cc1ccccc1)NN1C(=O)C(Cl)C1c1ccc(Cl)cc1 (configuration not stated)", "DLD-1", "class 0"],
  ["Fc1cccc(F)c1C1SCc2nc3ccccc3n21 (configuration not stated)", "DLD-1", "class 0"],
  ["CCOc1ccc(C2=C(Cl)c3cc(OC)c(OC)cc3C2Cl)cc1 (configuration not stated)", "DLD-1", "class 0"]
]}

Please look at the following molecule next.
Recorded call for CN(C)CC1(Cc2ccccc2)CC/C(=C\c2ccccc2)C1=O (configuration not stated) ?
class 0

---

Would you kindly list GI50 for each of these compounds?
# System: RXF 393
# test description: NCI tumour cell line growth inhibition, 48 h
The source made the active and inactive calls. Cut-off read from the data, not from the text of the source: active = GI50 up to about 1.1 µM and inactive = higher.

{"columns": ["compound", "GI50"],
 "data": [
  ["O=[N+]([O-])c1ccc(C(O)(C#CCN2CCCC2)c2ccccc2)cc1 (centres undefined)", "57.9 µM (inactive)"]
]}

For every item below, please supply its GI50.
1. COc1ccc(-c2cc(O)c3cc(OC)c(OC)cc3n2)cc1OC
2. O=NN1CCCS1(=O)=O
3. CC(C)(C)OC(=O)CN1CCN(CC(=O)N2CCN(C(=O)OCc3ccccc3)CC2)CCN(CC(=O)OC(C)(C)C)CCN(CC(=O)N2CCN(C(=O)OCc3ccccc3)CC2)CC1

["67.3 µM (inactive)", "> 100 µM (inactive)", "3.61 µM (inactive)"]

---

# Tested on: EKVX
# test description: NCI tumour cell line growth inhibition, 48 h
Active and inactive are the calls of the source. No stated cut-off is given here; in the data, active = GI50 up to about 1.1 µM and inactive = higher.
metric name: GI50

{"columns": ["molecule", "GI50"],
 "data": [
  ["N#Cc1c(NC(=O)C(F)(F)F)sc2c3c(=O)c4ccccc4c(=O)c=3oc3ccccc3c12", "24.6 µM (inactive)"],
  ["O=[N+]([O-])c1ccc(-c2ccc(-c3csc(Nc4ccccc4)n3)o2)cc1", "19.1 µM (inactive)"],
  ["COC(=O)C(Cc1c[nH]c2ccccc12)NC1=Nc2ccncc2S(=O)(=O)N1c1ccccc1 (stereo not given)", "> 100 µM (inactive)"],
  ["O=C1COCCN1C(=O)c1ccccc1Cl", "> 100 µM (inactive)"]
]}

We next turn to a different molecule, shown below.
Given the molecule CC1=C(C(=O)NCCc2ccccc2)CC(C(=O)NCCc2ccccc2)=C(C)N1 , what is its reported GI50?
65.3 µM (inactive)

---

# Test system: LOX IMVI
# test description: NCI tumour cell line growth inhibition, 48 h
Active and inactive are the calls of the source. Cut-off read from the data, not from the text of the source: active = GI50 up to about 1.1 µM and inactive = higher.
Lab note: assign the record to one of active, inactive

Previously resolved entries follow.
{"columns": ["compound", "group label"],
 "data": [
  ["CC1=C/C(O)CC(=O)Cc2nc(co2)C(=O)N2CCC=C2C(=O)OC(C(C)C)C(C)/C=C\\C(=O)NC/C=C\\1 (stereo not given)", "inactive"],
  ["CSC(C1c2ccccc2N(C)c2[nH]c(=O)n(C)c(=O)c21)S(=O)(=O)c1ccc(C)cc1 (stereo not given)", "inactive"],
  ["O=[N+]([O-])c1ccc(C(O)(C#CCN2CCCC2)c2ccccc2)cc1 (stereo not given)", "inactive"],
  ["C/N=c1\\ss/c(=N\\C(=S)N(C)C)n1-c1ccccc1", "inactive"],
  ["CCCCCC/C=C/C#CCCCCCCCC(=O)O", "inactive"],
  ["CC1=NN(C(=O)c2ccc(Cl)cc2)C(=O)/C1=C/c1ccc(O)cc1", "inactive"]
]}

Which outcome was entered for the compound O=C1c2cccnc2C(=O)c2c1nc1ccccc1c2-c1ccc2c3c(nc4ccccc42)C(=O)c2cccnc2-c13 in this test?
active

Hi, do you know how N=C(N)NS(=O)(=O)c1ccc(NNc2c3ccccc3nc3c(C(=O)Nc4ccc(S(N)(=O)=O)cc4)cccc23)cc1 came out in this test?
inactive

Outcome? COc1cc([C@@H]2c3cc4c(cc3C[C@@H]3COC(=O)C32)OCO4)cc(OC)c1O (stereo not given in full)
active

Can you look up the reported call for O=C1c2ccc(O)cc2OC(c2cc(O)c(O)c(O)c2)C1O (stereo not given) [DIHYDROBINETIN] for me?
inactive

Called result for CCOC(=O)c1c(-c2ccccc2)oc(-c2ccccc2)c1C(=O)OCC
inactive

---

# Test system: SF-295
# test description: NCI tumour cell line growth inhibition, 48 h
Activity calls are given as the source filed them. Rule as the data show it: active = GI50 up to about 1.1 µM and inactive = higher.
# valid calls are yes (active), no (inactive); nothing else

Observe how each entry below is paired with its result.
{"columns": ["molecule", "group label"],
 "data": [
  ["CCCC(=O)Nc1cn(COC)c(C(=O)N2C[C@H]3C[C@@]34C2=CC(=O)c2[nH]cc(C)c24)n1", "no"],
  ["Cc1ccc(/C=C2\\N=C(N3CCCC(CO)C3)NC2=O)cc1 (stereo not given)", "no"],
  ["CCOC(=O)c1c(-c2ccccc2)oc(-c2ccccc2)c1C(=O)OCC", "no"],
  ["Cc1ccc2ccc3ccc(C)nc3c2n1 [NEOCUPROINE]", "no"],
  ["O=C1c2cc3c(cc2CC12Cc1ccccc1C2)CCC3", "no"],
  ["CN(C)CCCN1c2ccccc2C(C)(C)c2ccccc21 [DIMETACRINE]", "no"]
]}

Tell me the recorded outcome of this test for CC(=O)O[C@H]1C(=O)[C@@]2(C)[C@H]([C@H](OC(=O)c3ccccc3)[C@]3(O)C[C@H](OC(=O)[C@H](O)[C@@H](NC(=O)c4ccoc4)c4ccccc4)C(C)=C1C3(C)C)[C@]1(OC(C)=O)CO[C@@H]1C[C@@H]2O .
yes

Which result was noted for this molecule in the test: CC(=O)OC1[C@H]2c3cc4c(cc3CN3CCC(C[C@@H]1OC(C)=O)C23)OCO4 (stereo not given in full)
no

Hi, do you know how Cc1ccc(S(=O)(=O)N/C(=C\C=C\c2ccccc2)C(=O)C(C)(C)C)cc1 came out in this test?
no

So what was the verdict on Nc1ccc(S(=O)(=O)C23CC4CC(CC(C4)C2)C3)cc1 in this test?
no

Each molecule tested received a call. Report the one for COC1(Cc2ccccc2)C(=O)c2ccccc2N1C(C)=O (stereo not given) .
no

Every entry's value here was drawn from ChEMBL document CHEMBL1201862.
